Molecular target: T1, human IGSF11 (VSIG3) on cells (human, UniProt Q5DX21 23-431)
T1 sequence: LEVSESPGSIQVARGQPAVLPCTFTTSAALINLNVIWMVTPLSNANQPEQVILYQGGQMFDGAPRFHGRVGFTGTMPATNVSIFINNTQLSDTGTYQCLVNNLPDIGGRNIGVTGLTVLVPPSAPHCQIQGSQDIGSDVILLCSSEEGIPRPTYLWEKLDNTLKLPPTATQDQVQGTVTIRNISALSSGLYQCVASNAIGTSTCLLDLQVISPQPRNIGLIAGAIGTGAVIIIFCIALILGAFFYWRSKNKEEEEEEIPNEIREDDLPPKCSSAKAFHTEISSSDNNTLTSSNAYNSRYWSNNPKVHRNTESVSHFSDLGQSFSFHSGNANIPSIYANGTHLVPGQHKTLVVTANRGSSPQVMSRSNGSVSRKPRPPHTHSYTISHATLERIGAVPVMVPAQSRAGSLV
Assay: FACS, IgG1-format antibodies; M579-A2-luc cells (M) treated with IGSF11 siRNA (KD)
property: percentage binding (FACS heat-map) (%)
Value expressed in %; do not type the unit.

Solved entries:
- A-026 (IgG1 format) (antibody, V domains shown, human IgG1 format) VH: QVQLQESGPGLVKPSQTLSLTCTVSGGSISSGGYYWSWIRQHPGKGLEWIGYIYYSGSTYYNPSLKSRVTISVDTSKNQFSLKLSSVTAADTAVYYCASWSLGTSNHGWFDPWGQGTLVTVSS VL: QSVLTQPPSASGTPGQRVTISCSGSSSNIGSNTVNWYQQLPGTAPKLLISDNNNRPSGVPDRFSGSKSGTSASLAITGLQAEDEADYYCQSYDSNLSGWVFGGGTKLTVL: 2.01
- A-006 (IgG1 format) (antibody, V domains shown, human IgG1 format; also called A-006-like ABP) VH: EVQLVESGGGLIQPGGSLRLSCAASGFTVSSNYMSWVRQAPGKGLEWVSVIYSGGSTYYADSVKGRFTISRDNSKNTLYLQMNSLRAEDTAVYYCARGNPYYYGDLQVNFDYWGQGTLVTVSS VL: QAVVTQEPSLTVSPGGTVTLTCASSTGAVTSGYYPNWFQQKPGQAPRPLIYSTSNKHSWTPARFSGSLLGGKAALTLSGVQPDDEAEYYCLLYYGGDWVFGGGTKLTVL: 2.59

Attention now turns to another entry.
input: Entry A-011 (IgG1 format) (antibody, V domains shown, human IgG1 format) VH: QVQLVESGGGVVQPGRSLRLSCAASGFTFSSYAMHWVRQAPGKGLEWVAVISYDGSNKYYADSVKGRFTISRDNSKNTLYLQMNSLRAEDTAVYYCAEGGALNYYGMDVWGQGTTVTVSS VL: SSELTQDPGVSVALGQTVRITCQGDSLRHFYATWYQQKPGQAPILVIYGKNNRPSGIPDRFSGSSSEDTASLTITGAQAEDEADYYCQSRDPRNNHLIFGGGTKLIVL has what percentage binding (FACS heat-map)?
output: 2.41
